ASSAY_PROCEDURE: blockers of ER-stress CHOP reporter expression – cell-based, unfolded protein response, luciferase reporter, primary screen (AID 2732);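 also: 0% = tunicamycin plus vehicle and 100% = wells without tunicamycin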
MEASUREMENT_SETUP: CHO-K1 CHOP-promoter luciferase, tunicamycin-induced, 15-18 h; at 10 µM
In all, about 220,000 compounds went through this assay and about 8,200 (3.7%) were called active.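 The calls were made as follows: active = compounds that reduced the stress-induced luciferase reporter signal by more than about 70% of percent inhibition (limit read from the data); inactive = the rest.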 For the sample, actives were picked, then their nearest neighbours and some compounds at random.
Outcome codes: active, inactive

COMPOUND	GROUP
C#CCNc1ccc(C(=O)OCC)cc1	inactive
CN(C)CCOc1ccc(Cl)cc1C(C)(C)C	inactive
c1ccc(C2c3[nH]c4ccccc4c3CCN2Cc2cccn2-c2cccnc2)nc1 (stereo unspecified)	inactive
CCN(CC)S(=O)(=O)c1ccc2nc(CSc3nnnn3-c3ccc(O)cc3)[nH]c2c1	inactive
O=C(NCC1CCCO1)c1ccccc1-c1nc(-c2ccccc2Cl)no1 (stereo unspecified)	inactive
CCS(=O)(=O)Nc1cccc(-c2cc(-c3ccccc3)c3cc(C)ccc3n2)c1	active
O=C(COC(=O)c1ccc(F)cc1)Nc1nc2ccc([N+](=O)[O-])cc2s1	inactive
O=c1[nH]nc(SCCS(=O)(=O)c2ccc(F)cc2)n1-c1ccccc1C(F)(F)F	inactive
Cc1cc(C)cc(OCc2nnc(SCC(=O)Nc3ccccc3)o2)c1	active
Cc1ccc(/C=N/NC(=O)COc2ccccc2-c2ccccc2)cc1	active
O=S(=O)(NCCSc1ccccn1)c1ccc(Cl)cc1	inactive

* * *

ASSAY_PROCEDURE: blockers of ER-stress CHOP reporter expression – cell-based, unfolded protein response, luciferase reporter, primary screen (AID 2732);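 also: 0% = tunicamycin plus vehicle and 100% = wells without tunicamycin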
MEASUREMENT_SETUP: CHO-K1 CHOP-promoter luciferase, tunicamycin-induced, 15-18 h; at 10 µM; active compounds read high
Out of some 220,000 compounds screened, about 8,200 (3.7%) were called active. The sample holds actives, similar compounds and a random draw of the others, so the mix is not that of the screen.
Recorded inhibition values for a group of compounds are listed next.
METRIC: inhibition (%)

COMPOUND	METRIC	QUANTITY_UNIT	MEASURED_VALUE
Cc1c(C#N)c(NC(=O)c2ccccc2)n(Cc2ccccc2)c1C	inhibition	%	-4.55
O=[N+]([O-])c1cc(Cl)cc(/C=N/NC(=S)Nc2cc(S(=O)(=O)N3CCOCC3)ccc2Cl)c1O	inhibition	%	24.1
Cn1nnnc1SCc1cc(=O)[nH]c2ccccc12	inhibition	%	6.42
CC(=O)N/C(=C\c1ccc(F)cc1)C(=O)NC(Cc1ccccc1)C(=O)O (stereo not given)	inhibition	%	2.9
COc1ccc(Cn2c(C)c(C)c(C#N)c2NC(=O)Nc2ccc(F)cc2)cc1	inhibition	%	94.3
O=C(Nc1ccc2oc(-c3ccc4ccccc4c3)nc2c1)c1cccs1	inhibition	%	-26.2
CCOC(=O)N1CCN(CC(=O)Nc2cc(C)nn2-c2nc3ccccc3s2)CC1	inhibition	%	-20.6
CCOc1ccc(C2NC(=S)NC3=C2CCc2ccccc23)cc1 (stereo not given)	inhibition	%	-10.8
C=C(C)C(=O)Nc1cccc(C2=NOC3(C2)C[C@H](C(N)=O)N(C(=O)C(c2ccccc2)c2ccccc2)C3)c1 (stereo not given in full)	inhibition	%	-8.97
CC1CN(c2nc(Nc3ccccc3)nc(N)c2[N+](=O)[O-])CC(C)O1 (stereo not given)	inhibition	%	9.58
COc1cc(NC(=O)c2ccc(CNc3c(N4CCCC4)c(=O)c3=O)cc2)cc(OC)c1OC	inhibition	%	-0.87
CC(=O)Nc1ccc(S(=O)(=O)N2CCSCC2)cc1	inhibition	%	-25.3
CCC(=O)/C(=C(/O)c1ccccc1)c1nc2ccccc2[nH]1	inhibition	%	-37.6
COC(=O)c1ccc(C2C(Oc3ccccc3C)C(=O)N2CCc2ccc(OC)c(OC)c2)cc1 (stereo not given)	inhibition	%	18.6
O=C(O)c1ccc(NC(=O)c2cccs2)cc1	inhibition	%	28.8

* * *

ASSAY_PROCEDURE: blockers of ER-stress CHOP reporter expression – cell-based, unfolded protein response, luciferase reporter, primary screen (AID 2732);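 also: 0% = tunicamycin plus vehicle and 100% = wells without tunicamycin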
MEASUREMENT_SETUP: CHO-K1 CHOP-promoter luciferase, tunicamycin-induced, 15-18 h; at 10 µM; active compounds read high
Hit rate of the full screen: of about 220,000 compounds, about 8,200 (3.7%) were called active. Shown is part of a subset that was picked to be rich in actives.
METRIC: inhibition (%)

MOLECULE	QUANTITY_UNIT	MEASURED_VALUE
C/C(=N\Nc1cccc(C(=O)O)c1)c1ccc2c(c1)Nc1ccccc1S2	%	-2.01
CN(C(=O)CCn1c(=S)oc2ccccc21)C1CCCCC1	%	4.79
COC(=O)c1ccccc1N=Nc1c(C)[nH][nH]c1=O	%	14.2
Cc1cc(-n2cnc(-c3cn(C)nc3C)n2)no1	%	-11.3
COc1cc(C(=O)N[C@@H](C)C(=O)NCc2ccco2)cc(OC)c1OC	%	0.36
Cc1ccc(C(=O)NCC(=O)OCC(=O)Nc2cccc(S(=O)(=O)N3CCCC3)c2)cc1C	%	-17.8
CN(C)C(=O)c1coc2nc3ccccc3nc12	%	20.5
Cn1c(=O)c2c(nc(N/N=C/c3cccs3)n2Cc2ccc(Br)cc2)n(C)c1=O	%	79.6
O=C(Nc1ccc(Cl)cn1)Nc1cccs1	%	38.9
CCOC(=O)c1sc(C)c2c1NC(C)(c1cccc3ccccc13)NC2=O (stereo not drawn)	%	74.8
O=C(O)CCn1c(O)c(C=C2N=c3ccccc3=N2)sc1=S	%	80.2
S=c1[nH]nc(-c2ccncc2)n1/N=C/c1ccccc1Cl	%	9.19
Cc1cc(C)cc(OCC(=O)O/N=C(\N)Cc2ccc([N+](=O)[O-])cc2)c1	%	13.5
CCC(C)Sc1nc(C)nc2c1c(=O)n(C)c(=O)n2C (stereo not drawn)	%	82.4
Cc1ccc(-c2c[n+](CC(=O)Nc3ccccc3)c3n2CCC3)cc1	%	16.6
CN1C(=O)/C(=C/c2ccc(C(=O)NC3CCCC3)cc2)Oc2ccccc21	%	101
Cc1cc(=O)oc2cc(OCC(=O)Nc3nnc(C4CC4)s3)ccc12	%	1.52
CSCCC1NC2(C(=O)Nc3ccc(Cl)cc32)[C@@H]2C(=O)N(C3CCCC3)C(=O)[C@H]12 (stereo partly drawn)	%	85.7

* * *

ASSAY_PROCEDURE: blockers of ER-stress CHOP reporter expression – cell-based, unfolded protein response, luciferase reporter, primary screen (AID 2732);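 also: 0% = tunicamycin plus vehicle and 100% = wells without tunicamycin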
MEASUREMENT_SETUP: CHO-K1 CHOP-promoter luciferase, tunicamycin-induced, 15-18 h; at 10 µM
The whole screen tested about 220,000 compounds, of which about 8,200 (3.7%) were called active.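 How the source made its calls: active means compounds that reduced the stress-induced luciferase reporter signal by more than about 70% of percent inhibition (limit read from the data); inactive means the rest.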 Many of the other results were omitted from the sample, so actives are more common in it than they were.
Outcome codes: active, inactive

MOL_SMILES	GROUP
Cc1ccc(OC(=O)c2c(C)nn(-c3ccccc3)c2C)cc1	inactive
O=C(O)CCCCCCCCCC[n+]1ccccc1	inactive
COc1ccc(NC(=O)CCN2C(=O)/C(=C/c3ccc4c(c3)OCO4)SC2=S)cc1	inactive
O=C(CCS(=O)(=O)c1ccccc1Cl)Nc1ccc(S(=O)(=O)Nc2ncccn2)cc1	inactive
NC(=O)C1(N2CCCCC2)CCN(C(=O)c2ccc(C#Cc3ccccc3)o2)CC1	active
COc1cc(/C=N/O)cc(Br)c1OCc1cccc(Cl)c1	active
O=C(Nc1cc(C(F)(F)F)ccc1Cl)c1cc(C2CC2)on1	inactive
COc1ccc2oc(N)c(C=O)c(=O)c2c1	inactive
